System: HaCaT
TEST DETAILS: Antiproliferative activity against human HaCaT cells assessed as dispersed cells after 48 hrs by phase-contrast microscopic analysis
Format: functional, cell-based
QUANTITY MEASURED: IC50

As a guide, the following entries are already answered.
O=c1c2ccccc2n(CCCc2ccccc2)c2cccc(O)c12
> 50 µM
Cn1c2ccccc2c(=O)c2c(O)cccc21
> 50 µM
CCCn1c2ccccc2c(=O)c2c(O)cc(O)cc21
> 50 µM

Quick one: give me IC50 for each item below, same order please.
1. COc1cccc2c1c(=O)c1ccccc1n2C
2. CCCn1c2ccccc2c(=O)c2c(O)cccc21
3. CCOc1cc(O)c2c(=O)c3ccccc3n(CC)c2c1
4. CCn1c2ccccc2c(=O)c2c(O)cc(O)cc21
5. O=c1c2ccccc2[nH]c2ccccc12
6. CCn1c2ccccc2c(=O)c2c(O)cccc21

1. > 50 µM
2. > 50 µM
3. > 50 µM
4. > 50 µM
5. > 50 µM
6. > 50 µM

# batch: return IC50 for each of the 3 molecules below
1. O=c1c2ccccc2[nH]c2cccc(O)c12
2. COc1ccc(Cn2c3ccccc3c(=O)c3ccccc32)cc1OC
3. Cc1cccc2c1c(=O)c1c(O)cc(O)cc1n2C

1: > 50 µM; 2: > 50 µM; 3: > 50 µM
